These measurements were taken from the supplement of paper PMC9170038.

Test system: K4 kissing-loop RNA reporter;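 also: bound reporter read as fluorescence of individual clusters on recovered sequencing chips by microscopy, with normalized cluster intensities fitted with a binding model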
Assay: apparent KD of K4 kissing-loop reporter; higher = weaker reporter binding
Conditions: Eterna round: R107; input ligand: arginine 13.2 mM
Classify by measured apparent KD of K4 kissing-loop reporter: TRUE if it is equal to or exceeds 100 nM, FALSE if it is smaller.

1) GCGAUCUGCAUCGAUACCAGCCCAGUGAUGUUGGGCUGCUCUCCAUGGGUGCCAGACACGGGCCCUUGGCAGCGAGGUAGAGCCC [Maonzaa] | TRUE
2) UAGUCGCUAGUUAGCGACAACGGGUCAGAUACCAGACUAGCGAUAGUCCCUUGGCAGCUGAAGUUCAGUGAUGUUGAACGGAUUA [Theo A SS t10] | TRUE
3) UGUGGUGUAUCCUUUAGGAGUGAUGUUUUUCGAGGACCGGUACGGCCGCCACUCGAGUGAUGAGAGCGUCGUUGUGGUGGUUUGU [#16 K4 Tryptophan A Exclusion] | TRUE
4) AUGGUAUUGCGAGGAUAUCCUUCAAAUGUGACACUAACGGCAGUGAUGUUGCCGGCGUCUUUUUGAGGAGAAGGCGCGGUGUUAU [Exclusion FMN B GF 24] | TRUE
5) UCGGACCCUGGAGGAUAUGAGUCUAGUGAUGUUAGGCGGUCCAUGCGCGUGGCGCGUUAUGCCCUUUUAGAAGGCCAGGGUCCGA [#2 Exclusion - FMN B Attempt #15 (HarryS)] | FALSE
6) UGUACAUGUCACCGAGUGAUGUUCGACGAUACCAGACUCGAUAGAGUCCCUUGGCAGCGUAACGCAUGCCAAAGUGGCAUGUACU [#SwitchBubble 10 #K4Early] | TRUE
7) GGUUUAUAGGAGGAUACCAGUACGGAUAAAGUACGUUAAUAGUAGAGUGAUGUUCUAAAGUACCCUUGGCAGCUUAGAUUAAGUU [ExTheophylB.J] | TRUE
8) CUGGGUUGACGAAAAGUCAACAAAUGAGAAGGAGCGCACGAAAGUGCAGGUAGGUCGCUCAAUCCAGUGAUGUUGGGUCAUCCAG [#SwitchBubble 13 #K4Late] | TRUE
9) AGCAGUCCAGGAUCGAAAGAUCCUGAGGUCCGAGGACCGGUACGGCCGCCACUCGGAGUGAUGUUCCGAAGACUGCAAAAUAAAA [#SwitchBubble 5] | TRUE
10) GUUACUUCAGAAGGAUAUUAGUAAACAACACGGUAGUGAUGUUACCGUUAUCAAGCCCGGCUUCACUAAGAAGGUCUCCACCGCG [theeternabot_sameState_KL_FMN_B_23] | FALSE
11) CGAGUGAUGUUCGAAGAGUUGUUGAGCGAUACCAGCCAGGAAACUGGCCCUUGGCAGCGUAAUAAAUAAAUAAAUAAAUGAUCAC [whbob_Ex_Theo_A_th61] | TRUE
12) CCUUCUCUUGAUAGUGAUGUUGUCGAGGACAAGGAUAUCAUCUCAAUGAGAAGGUGUCCUUGAUAACAUGGAGGUCUGAAACAGA [Omei KL FMN A Exc C v10] | TRUE
13) GCGCGGGAGUGAUGUUCCAAGUGGUGUUAGCGAGGACCGGUACGGCCGCCACUCGUUACGGCCGGGCCGUAGGAUACACUGGCGC [Same State - Tryptophan A (Freestyle 17)] | TRUE
14) CGCGCGCGCGCGCGCGCGCGCGCGAAUGAUACCAGUAUAUAAGAAUACCCUUGGCAGCAUAAGAAAGAUAUAGUGAUGUUGUAUA [SSTheophA.B] | TRUE
15) AGUUCUUGCCGAAGGAGCGAGGCAGAGUGAUGUUCUGCAGAUGUCGAAAGACAUCAACUGCCUCAGGUAGGUCGCGGCAUGAACA [#05 K4 Arginine B Exclusion] | FALSE
16) GAGGGCUCGGGAGGAUAUGAGUCUAGUGAUGUUAGGCGGUCCAUGCGCGUGGCGCGUUAUGCCCUUUUAGAAGGCCCGAGCCCGC [#2 Exclusion - FMN B Attempt #23 (HarryS)] | FALSE
17) UCUGGUAUAUCUGAUACCAGAGAAUAGAAUCAAUUGAAUAUGGAGUGAUGUUCCAUAAAACUCCCUUGGCAGCAGAUAAUCAUAU [Same State Theophylline B GF 22] | TRUE
18) GGAUAGGAUAGAGGAUAUGGAAAACACAGAAGUGACUUGUUGUGUUUAUCCAUAGGGAGUGAUGUUCCAGAAGGCUGUCCUAUCG [MatMod 22 - Jieux - Exclusion - FMN B] | TRUE
19) CGUACGGUUUCUUUCUUUCCGUACGAGUGCCGAGGACCGGUACGGCCGCCACUCGCUACAGCCUAGUGAUGUUAGGAACGUGUUA | FALSE
20) AGUGAACGAGCGGCCGCCACUAACUGAGUGAUGUUCGUGAGUAGUGCUGUUCUCAUGAUUGUUUUUAGGACCGGGUUCGAUGUUG [ttbjmullin] | TRUE
21) UAUUGUACAGGGAAAUUGAUAAUAGACUUACGAGGACCGGUACGGCCGCCACUCGAUAGUCGAGUGAUGUUCGAAUGCUAUUGAU [Attempt 1] | TRUE
22) GAACGGCGGGCGGCCGCCACUGGUAUACGAGUGAUGUUCGGAUAUACGUGAUGUAAGGUAAUUAACAGGACCGGGUCAGGGCCGG [whbob_SS_Tryp_B_t20] | TRUE
23) GAUCUGAACGAAAGUUCGGAUCAGUCCGAUACCAGUAUGGAUUCAUACCCUUGGCAGCGGAAAUCUGCUAUGGAGUGAUGUUCCU [Theophylline A K4 13] | TRUE
